Test system: RXF 393 renal
Test: NCI tumour cell line growth inhibition, 48 h
Endpoint: TGI (µM)

1) O=[N+]([O-])c1cc2oc(CSc3ccccc3)nc2cc1Cl; 93
2) O=C(OCC(Cl)(Cl)Cl)N1CC[C@H](C2CCCCC2)C1; 36.8
3) CCSc1nc(N=Cc2ccccc2O)c2cn[nH]c2n1; 44.6
4) CCOC(=O)/C=C1/C(CCCOCc2ccccc2)C2CCCC23CC2(CCN13)OCCO2 (configuration not stated); 37.5
5) C=CCn1c(=O)ccn(/C(=C/C(=O)OCC)C(=O)OCC)c1=O; 28.5
6) CCCCCCCCSC1=C(Cl)C(=O)C(OC)=C(OC)C1=O; 30.3
7) CSC[C@H](NC(=O)COc1cccc2cnccc12)C(=O)NC(Cc1ccccc1)C(O)C(=O)N1CSC[C@H]1C(=O)NC(C)(C)C (some centres not stated); 99.8
8) COc1ccc(NC(=O)CSc2nnc(-c3ccc(NC(C)=O)cc3)o2)cc1; 28.7
9) COc1ccc(Cl)cc1NC(=O)c1ccc(NC2=C(Cl)C(=O)N(Cc3ccccc3)C2=O)cc1; 79.3
10) C=C1C(=O)[C@@]23CC[C@@H]4[C@@]5(C)CCC[C@@]4(OC5=O)[C@@]2(C)CC[C@@H]1C3; 3.25
11) Cc1cc(C(=O)CSC(=S)SC(C)(C)C)ccc1Cl; 29
12) CCOC(=O)c1c(C)c2c(n1Cc1ccccc1)CSCC2=O; 70.6
13) COc1ccc(/C=C\c2cc(OC)c(OC)c(OC)c2)cc1OCC(=O)O; 39.2
14) Cc1cc(N(C)C)c2ccccc2[n+]1CCCCCCCCCC[n+]1c(C)cc(N(C)C)c2ccccc21; 35
15) O=C(CNc1ccc(Cl)cc1Cl)Nn1c(-c2ccccc2)nc2ccccc2c1=O; 36.5
16) O=C1C=C(c2c(O)ccc3ccccc23)c2cc(O)ccc2C1=O; 29.1
